# experiment: recombinant UMI read abundance after kanamycin selection (control-corrected) (log10(CPM+1)); higher = more efficient recombination; extreme values may be limits of the assay; sequences stand for … in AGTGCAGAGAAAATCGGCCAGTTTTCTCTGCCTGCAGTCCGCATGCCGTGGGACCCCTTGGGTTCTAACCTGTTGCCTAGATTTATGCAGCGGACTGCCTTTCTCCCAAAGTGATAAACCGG…AGGTTGGTTTCACT; site = the 11-nt donor;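 further: IS621 bridge recombinase in Escherichia coli cells against a fixed T5 target plasmid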
Classes by recombinant UMI read abundance (log10): group A (below 0.003), group B (0.003 to below 0.5), group C (0.5 or more)

Observe how each entry below is paired with its result.
1. TAAAGTCCATGGACCGGTTTTCCCGGTAATCCGTATTTGTC (site TAAAGTCCTGA): group B
2. GGATAGACATGGACCGGTTTTCCCGGTAATCCGTATTTGCC (site TGATAGACTGG): group C
3. GTGCTGGCATGGACCGGTTTTCCCGGTAATCCGTATTTGGT (site GTGCTGGCTAC): group B

Q: Please report the category associated with CCCTAGCCATGGACCGGTTTTCCCGGTAATCCGTATTTGAC (site CCCTAGCCTGC) , nothing else.
Result: group A

Q: Please report the category associated with TAAAACTCATGGACCGGTTTTCCCGGTAATCCGTATTTGGG (site TAAAACTCTCC) , nothing else.
Result: group B
